system: Phytophthora infestans (US22); assay type: in vivo; settings: tomato cv. M82; root treatment; at the concentrations tested

[
  {
    "MOLECULE": "C[C@H](CCC(=O)O)O[C@@H]1O[C@@H](C)[C@H](O)C[C@H]1O",
    "TESTED_SYSTEM": "Phytophthora infestans (US22)",
    "resistance to P. infestans": "enhanced resistance"
  },
  {
    "MOLECULE": "CC1O[C@@H](O[C@@H](C)CCCCCCCCC(=O)O)C(O)C[C@H]1O (stereo in doubt)",
    "TESTED_SYSTEM": "Phytophthora infestans (US22)",
    "resistance to P. infestans": "enhanced resistance"
  }
]
